MEASUREMENT_NOTES: Plasma clearance in male Wistar-Han rat at 1.48 mg/kg, iv
Type: ADME, organism-based
Parameters: dose 1.48 mg/kg, route intravenous
Where a SMILES comes first, the peptide text is derived from it. [ ]: non-standard residue; d: D form. NMeY = CN[C@@H](Cc1ccc(O)cc1)C(=O)O; NMeD = CN[C@@H](CC(=O)O)C(=O)O; dNMeL = CN[C@H](CC(C)C)C(=O)O
MEASUREMENT_TYPE: clearance (mL/min/kg)
Respond with the bare value in mL/min/kg.

[in] // returns reported clearance for input CC(C)C[C@@H]1NC(=O)[C@H](Cc2ccc(O)cc2)N(C)C(=O)[C@H]2CCCN2C(=O)[C@H](CC(C)C)NC(=O)[C@H](CC(=O)O)N(C)C(=O)[C@@H](CC(C)C)N(C)C1=O (cyclo(L[dNMeL][NMeD]L[dP][NMeY]))
[out] 56.4
